experimental-protocol: Cytotoxicity against human L02 cells assessed as survival rate measured after 12 hrs by MTT assay relative to control
Format: toxicity, cell-based
test-conditions: read-out: Survival

>  <chem-smiles>
CC[N+]1=C(/C=C/C2=C3Oc4cc(OP(=O)(O)O)c(Br)cc4C=C3CCC2)C(C)(C)c2cc(Br)ccc21.[I-]

>  <viability at 12 h>
> 85%

$$$$
